Reported values of protein stability index for individual entries
B1: KRT13 (parent)
chain: KTIEELRDKILTATIENNRVILEI

variants of: B1; assay: protein stability index of a GFP-peptide fusion (GPS, HEK-293T) (PSI 1-6); higher = more stable; conditions: c terminus: a fixed tail appended;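 note: lentivirally expressed fusions sorted by FACS into six bins by GFP to DsRed ratio, PSI derived from sequencing read proportions per bin multiplied by bin number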
Field format: numeric only.

# annotated cases, reported protein stability index shown
# sequence-record, protein stability index
rows = [
    ("KTDEELRDKILTATIENNRVILEI [I3D]", 1.67),
    ("KTIEELRDKILTATIQNNRVILEI [E16Q]", 3.1),
    ("KTISELRDKILTATIENNRVILEI [E4S]", 3.44),
    ("KTIEELRDKILTATNENNRVILEI [I15N]", 2.98),
    ("KTIEELRDKILTACIENNRVILEI [T14C]", 3.4),
    ("KTIEELRDKILTATIEINRVILEI [N17I]", 1.73),
    ("KTIEELRDKILTADIENNRVILEI [T14D]", 2.57),
    ("KTIEELRDKILTATQENNRVILEI [I15Q]", 2.07),
]

// query Which protein stability index is listed for KTIEELRDKILTATIENKRVILEI [N18K] ?
// result 3.44

// query Which protein stability index is listed for KTIEELRDKILTATIENNRKILEI [V20K] ?
// result 2.1

// query Which protein stability index is listed for KTIEELRDKILDATIENNRVILEI [T12D] ?
// result 1.76

// query Which protein stability index is listed for KTIEELRDKILTATIENNRSILEI [V20S] ?
// result 2.01

// query Which protein stability index is listed for KTIEELRDKILTATIENNIVILEI [R19I] ?
// result 3
